meta.source: patent US6362174B1

tested.on: N-type Ca2+ channel (Homo sapiens)
Construct: host or cells: IMR-32 human neuroblastoma cells, differentiated with dibutyryl cAMP and bromodeoxyuridine
Sequence (Q00975 whole entry): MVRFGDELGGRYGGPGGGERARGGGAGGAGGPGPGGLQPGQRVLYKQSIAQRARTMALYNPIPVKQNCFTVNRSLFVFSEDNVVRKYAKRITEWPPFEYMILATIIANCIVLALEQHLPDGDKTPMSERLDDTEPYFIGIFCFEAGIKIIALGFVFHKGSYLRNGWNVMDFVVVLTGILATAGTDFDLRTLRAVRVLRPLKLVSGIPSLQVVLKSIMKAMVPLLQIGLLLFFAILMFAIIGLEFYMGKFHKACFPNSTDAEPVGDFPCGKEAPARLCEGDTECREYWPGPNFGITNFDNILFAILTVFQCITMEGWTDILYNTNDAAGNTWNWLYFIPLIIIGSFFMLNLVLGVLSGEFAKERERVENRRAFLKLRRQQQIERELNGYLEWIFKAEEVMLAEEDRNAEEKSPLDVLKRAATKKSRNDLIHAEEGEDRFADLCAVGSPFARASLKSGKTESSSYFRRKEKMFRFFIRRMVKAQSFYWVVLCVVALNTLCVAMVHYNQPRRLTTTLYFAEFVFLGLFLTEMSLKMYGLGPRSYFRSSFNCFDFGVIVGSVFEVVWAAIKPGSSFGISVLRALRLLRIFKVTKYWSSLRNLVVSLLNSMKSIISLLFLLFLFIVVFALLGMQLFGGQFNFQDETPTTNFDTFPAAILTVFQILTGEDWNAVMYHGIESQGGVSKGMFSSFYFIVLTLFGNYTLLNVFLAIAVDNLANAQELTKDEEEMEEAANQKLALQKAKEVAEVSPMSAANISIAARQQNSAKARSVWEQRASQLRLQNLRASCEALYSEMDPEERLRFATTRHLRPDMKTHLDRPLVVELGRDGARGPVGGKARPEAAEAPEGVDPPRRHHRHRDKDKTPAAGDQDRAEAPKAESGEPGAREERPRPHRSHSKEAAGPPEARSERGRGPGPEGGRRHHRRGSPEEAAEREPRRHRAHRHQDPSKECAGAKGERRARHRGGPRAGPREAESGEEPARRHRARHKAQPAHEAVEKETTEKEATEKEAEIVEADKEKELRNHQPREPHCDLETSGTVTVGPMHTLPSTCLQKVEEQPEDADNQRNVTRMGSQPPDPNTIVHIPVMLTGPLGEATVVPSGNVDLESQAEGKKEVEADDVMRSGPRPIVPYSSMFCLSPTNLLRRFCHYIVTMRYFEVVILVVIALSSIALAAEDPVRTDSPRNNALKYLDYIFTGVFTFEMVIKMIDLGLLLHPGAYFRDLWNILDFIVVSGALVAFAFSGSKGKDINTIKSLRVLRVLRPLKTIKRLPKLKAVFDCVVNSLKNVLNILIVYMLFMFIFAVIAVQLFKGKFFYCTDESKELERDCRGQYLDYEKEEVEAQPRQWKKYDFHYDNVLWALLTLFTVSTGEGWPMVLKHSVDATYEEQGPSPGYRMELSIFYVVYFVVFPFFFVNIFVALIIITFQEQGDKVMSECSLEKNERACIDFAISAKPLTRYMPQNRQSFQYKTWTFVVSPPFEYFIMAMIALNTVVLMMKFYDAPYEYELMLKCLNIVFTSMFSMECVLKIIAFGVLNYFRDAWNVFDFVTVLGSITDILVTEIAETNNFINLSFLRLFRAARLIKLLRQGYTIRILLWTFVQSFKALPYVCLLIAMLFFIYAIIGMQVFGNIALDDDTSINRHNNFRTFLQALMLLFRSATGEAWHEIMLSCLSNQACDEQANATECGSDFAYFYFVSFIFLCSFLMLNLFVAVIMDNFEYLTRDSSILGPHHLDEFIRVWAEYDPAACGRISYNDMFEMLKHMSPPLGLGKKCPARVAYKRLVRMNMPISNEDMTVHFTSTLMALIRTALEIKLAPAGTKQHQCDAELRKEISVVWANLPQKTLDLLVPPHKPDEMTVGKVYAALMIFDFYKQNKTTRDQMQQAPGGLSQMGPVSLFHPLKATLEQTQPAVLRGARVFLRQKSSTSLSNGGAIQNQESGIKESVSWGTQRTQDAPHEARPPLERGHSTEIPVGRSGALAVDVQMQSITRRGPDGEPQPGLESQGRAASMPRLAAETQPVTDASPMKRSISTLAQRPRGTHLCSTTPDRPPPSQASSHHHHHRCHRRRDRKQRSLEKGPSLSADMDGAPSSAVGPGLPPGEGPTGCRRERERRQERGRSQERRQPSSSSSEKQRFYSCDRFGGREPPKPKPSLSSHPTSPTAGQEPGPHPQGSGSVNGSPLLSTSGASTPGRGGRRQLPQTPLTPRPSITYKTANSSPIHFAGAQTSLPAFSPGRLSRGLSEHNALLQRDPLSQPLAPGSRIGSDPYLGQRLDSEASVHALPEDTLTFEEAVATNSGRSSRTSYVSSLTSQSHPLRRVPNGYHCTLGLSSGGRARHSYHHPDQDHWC
Sequence (Q02641 whole entry partner): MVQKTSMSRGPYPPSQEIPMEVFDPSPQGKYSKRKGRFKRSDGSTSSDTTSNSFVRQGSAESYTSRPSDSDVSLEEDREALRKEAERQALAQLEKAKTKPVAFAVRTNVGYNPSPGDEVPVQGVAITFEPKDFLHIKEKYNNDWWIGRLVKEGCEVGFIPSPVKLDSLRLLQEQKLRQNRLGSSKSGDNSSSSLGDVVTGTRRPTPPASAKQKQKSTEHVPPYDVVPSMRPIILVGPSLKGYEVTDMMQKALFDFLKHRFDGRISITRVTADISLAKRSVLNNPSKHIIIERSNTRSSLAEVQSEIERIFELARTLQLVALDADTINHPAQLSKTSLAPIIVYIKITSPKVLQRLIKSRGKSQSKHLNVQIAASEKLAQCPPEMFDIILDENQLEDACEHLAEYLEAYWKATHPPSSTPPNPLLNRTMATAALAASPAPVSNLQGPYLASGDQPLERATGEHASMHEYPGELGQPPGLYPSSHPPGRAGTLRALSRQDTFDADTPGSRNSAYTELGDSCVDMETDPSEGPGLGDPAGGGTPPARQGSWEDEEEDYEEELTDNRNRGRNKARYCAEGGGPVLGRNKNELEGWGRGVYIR
Sequence (P54289 25-956 partner limits assumed): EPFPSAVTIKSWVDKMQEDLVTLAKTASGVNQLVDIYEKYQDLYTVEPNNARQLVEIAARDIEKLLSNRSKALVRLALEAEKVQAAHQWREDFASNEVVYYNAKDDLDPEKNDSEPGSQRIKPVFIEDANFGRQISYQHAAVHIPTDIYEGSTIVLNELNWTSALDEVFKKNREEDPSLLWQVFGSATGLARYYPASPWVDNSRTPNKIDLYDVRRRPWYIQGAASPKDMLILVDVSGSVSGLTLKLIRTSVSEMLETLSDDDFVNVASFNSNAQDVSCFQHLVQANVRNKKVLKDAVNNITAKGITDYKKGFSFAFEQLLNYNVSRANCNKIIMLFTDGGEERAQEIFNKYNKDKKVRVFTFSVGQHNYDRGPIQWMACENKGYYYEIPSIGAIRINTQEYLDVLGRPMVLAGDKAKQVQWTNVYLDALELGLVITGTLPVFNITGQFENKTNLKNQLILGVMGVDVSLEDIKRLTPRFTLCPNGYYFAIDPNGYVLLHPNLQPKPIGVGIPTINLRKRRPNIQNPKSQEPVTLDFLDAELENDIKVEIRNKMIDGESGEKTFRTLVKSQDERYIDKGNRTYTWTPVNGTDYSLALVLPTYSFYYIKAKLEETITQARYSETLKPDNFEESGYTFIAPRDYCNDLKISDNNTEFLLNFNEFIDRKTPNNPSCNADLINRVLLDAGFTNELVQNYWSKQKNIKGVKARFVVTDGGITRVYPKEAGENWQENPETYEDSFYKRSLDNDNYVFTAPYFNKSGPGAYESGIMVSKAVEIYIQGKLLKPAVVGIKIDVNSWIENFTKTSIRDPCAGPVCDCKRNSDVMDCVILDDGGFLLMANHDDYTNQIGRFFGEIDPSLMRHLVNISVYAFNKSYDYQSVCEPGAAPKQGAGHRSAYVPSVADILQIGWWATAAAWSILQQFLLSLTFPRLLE
Sequence (P54289 957-1103 partner limits assumed): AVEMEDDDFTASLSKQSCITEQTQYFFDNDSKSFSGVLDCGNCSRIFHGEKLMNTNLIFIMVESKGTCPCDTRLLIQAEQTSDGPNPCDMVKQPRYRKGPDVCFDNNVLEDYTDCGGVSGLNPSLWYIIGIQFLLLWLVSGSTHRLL
run.description: Measurement of N-type Ca2+ channel blocking potencies in IMR32 cells using the fluorescent Ca2+ indicator Indo-1
Format: cell-based
measurement.setup: IMR-32 cells, K+ depolarization, 5 μM nitrendipine to block L-type channels
pIC50: −log10 of the molar value. Structures can show the parent of a compound that is named as a salt.

| compound | pIC50 |
| --- | --- |
| CC(C)C[C@@H](CN[C@@H](Cc1ccc(OCc2ccccc2)cc1)C(=O)NC(C)(C)C)NC(=O)N1CCCCCC1 (relative stereo) [Example 2, dihydrochloride salt] | 6.72 |
| CCN(CC)C[C@H](Cc1ccc(OCc2ccccc2)cc1)NC(=O)[C@H](CC(C)C)NC(=O)N1CCCCCC1 [Example 6] | 5.96 |
| CC(C)C[C@H](NC(=O)N1CCCCCC1)C(=O)N[C@H](CNC(C)(C)C)Cc1ccc(OCc2ccccc2)cc1 (relative stereo) [Example 5] | 5.96 |
| CC(C)CC(N)CN[C@@H](Cc1ccc(OCc2ccccc2)cc1)C(=O)NC(C)(C)C (single isomer, unassigned) [Example 7, dihydrochloride] | 5.92 |
| CC(C)C[C@H](NC(=O)N1CCCCCC1)C(=O)N[C@H](COC(C)(C)C)Cc1ccc(OCc2ccccc2)cc1 (relative stereo) [Example 1] | 6.68 |
| CC(C)C[C@H](NC(=O)N1CCCCCC1)C(=O)N[C@@H](Cc1ccc(OCc2ccccc2)cc1)CN1CCOCC1 (relative stereo) [Example 4] | 5.92 |
| CC(C)CC(N)CN[C@@H](Cc1ccc(OCc2ccccc2)cc1)C(=O)NC(C)(C)C (single isomer, unassigned) [Example 8, dihydrochloride] | 6.00 |
